Assay: molar heat capacity at constant pressure
Settings: 336.2 K; 101.33 kPa; Liquid; Small sample (50 mg) DSC
Label TRUE for high-side molar heat capacity at constant pressure (at or above 300 J/K/mol) and FALSE for low-side molar heat capacity at constant pressure (below it).

Worked examples, 4 molecules total:
INSERT INTO results (molecule, class_assignment) VALUES
  ('CCCCn1cc[n+](C)c1.N#C[S-] [1-butyl-3-methylimidazolium thiocyanate]', 'TRUE'),
  ('O=S1(=O)CCCC1', 'FALSE'),
  ('CCCCn1cc[n+](C)c1.N#CN=C=[N-] [1-butyl-3-methylimidazolium dicyanamide]', 'TRUE'),
  ('CCn1cc[n+](C)c1.N#CN=C=[N-] [1-ethyl-3-methylimidazolium dicyanamide]', 'TRUE');

Task item: Confirm if molar heat capacity at constant pressure reported for the molecule CCn1cc[n+](C)c1.N#C[C-](C#N)C#N [1-ethyl-3-methyl-1H-imidazolium tricyanomethanide] is 300 J/K/mol or above.
Reply: TRUE

----------
Listing of recorded molar heat capacity at constant pressure by entry.
Test: molar heat capacity at constant pressure
Conditions: 328.2 K; 101.33 kPa; Liquid; Small sample (50 mg) DSC
Numbers after ± are expanded uncertainties.

Task item: Data request, read-out molar heat capacity at constant pressure, for CCCCn1cc[n+](C)c1.N#C[S-] [1-butyl-3-methylimidazolium thiocyanate]
Reply: 329.1 ± 53 J/K/mol

Task item: Next entry: CCn1cc[n+](C)c1.N#C[C-](C#N)C#N [1-ethyl-3-methyl-1H-imidazolium tricyanomethanide]
Reply: 372.07 ± 60 J/K/mol

Task item: Next entry: O=S1(=O)CCCC1
Reply: 188.79 ± 30 J/K/mol

----------
Assay: molar heat capacity at constant pressure
Details: 308.2 K; 101.33 kPa; Liquid; Small sample (50 mg) DSC
Could you mark each record yes if its molar heat capacity at constant pressure falls strictly under 300 J/K/mol, and no if it equals or exceeds it?

Worked examples, 5 compounds total:
INSERT INTO assay_data (compound, class_assignment) VALUES
  ('CCCCn1cc[n+](C)c1.N#CN=C=[N-] [1-butyl-3-methylimidazolium dicyanamide]', 'no'),
  ('O=S1(=O)CCCC1 [sulfolane]', 'yes'),
  ('CCn1cc[n+](C)c1.N#C[C-](C#N)C#N [1-ethyl-3-methyl-1H-imidazolium tricyanomethanide]', 'no'),
  ('CCn1cc[n+](C)c1.N#CN=C=[N-] [1-ethyl-3-methylimidazolium dicyanamide]', 'no'),
  ('CCn1cc[n+](C)c1.N#C[S-] [1-ethyl-3-methylimidazolium thiocyanate]', 'yes');

Note: attention shifts to another entry.
Task item: Bench note: check whether CCCCn1cc[n+](C)c1.N#C[S-] [1-butyl-3-methylimidazolium thiocyanate] shows molar heat capacity at constant pressure below 300 J/K/mol
Reply: no

----------
Listing of recorded molar heat capacity at constant pressure by entry.
Assay: molar heat capacity at constant pressure
Settings: 352.2 K; 101.33 kPa; Liquid; Small sample (50 mg) DSC
Could you give me the number in J/K/mol? Just the number is fine.

Known results for molecules:
INSERT INTO measurements (molecule, observed_result) VALUES
  ('CCn1cc[n+](C)c1.N#CN=C=[N-] [1-ethyl-3-methylimidazolium dicyanamide]', 357.78),
  ('CCCCn1cc[n+](C)c1.N#C[S-] [1-butyl-3-methylimidazolium thiocyanate]', 344.29),
  ('CCn1cc[n+](C)c1.N#C[S-] [1-ethyl-3-methylimidazolium thiocyanate]', 308.2);

Task item: Data request, read-out molar heat capacity at constant pressure, for O=S1(=O)CCCC1
Reply: 200.81

Task item: Next entry: CCCCn1cc[n+](C)c1.N#CN=C=[N-] [1-butyl-3-methylimidazolium dicyanamide]
Reply: 390.4

Task item: Next entry: CCn1cc[n+](C)c1.N#C[C-](C#N)C#N [1-ethyl-3-methyl-1H-imidazolium tricyanomethanide]
Reply: 387.16
